# STUDY_SYSTEM: Kaffeebohnen-α-Galactosidase (Coffea arabica, UniProt Q42656)
# Construct: purchased Sigma
# Sequence (Q42656 16-378): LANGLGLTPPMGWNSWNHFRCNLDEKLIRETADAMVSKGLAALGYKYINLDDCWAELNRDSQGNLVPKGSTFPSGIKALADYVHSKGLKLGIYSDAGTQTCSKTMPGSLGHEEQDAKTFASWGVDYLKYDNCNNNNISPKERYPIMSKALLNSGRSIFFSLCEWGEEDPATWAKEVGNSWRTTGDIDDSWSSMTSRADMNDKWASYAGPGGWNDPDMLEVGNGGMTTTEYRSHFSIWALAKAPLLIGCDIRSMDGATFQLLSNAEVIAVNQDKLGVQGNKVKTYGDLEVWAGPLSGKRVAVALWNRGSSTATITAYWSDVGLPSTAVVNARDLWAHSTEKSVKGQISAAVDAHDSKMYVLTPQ
# ASSAY_INFO: Cleavage of the prodrug by coffee bean α-galactosidase (HPLC analysis)
# Type: biochemical
# EXPERIMENTAL_CONDITIONS: coffee bean alpha-galactosidase; 0.03 U/ml Kaffeebohnen-α-Galactosidase (Sigma), Phosphat-Puffer pH 5, 37 °C; read-out: Halbwertszeit der Spaltung
REPORTED_METRIC: half-life

IN: # half-life lookup, item `COc1cccc2c1C(=O)c1c(O)c3c(c(O)c1C2=O)C[C@@](O)(C(=O)CO[C@H]1O[C@H](CO)[C@H](O)[C@H](O)[C@H]1O)C[C@@H]3O[C@H]1C[C@H](N)[C@H](O)[C@H](C)O1`
OUT: ~20 min
